biological target: human CSE (Homo sapiens, UniProt P32929); assay: H2S production by purified recombinant GST-CSE; type: biochemical; settings: CSE, IC50, 5 μg CSE, 10 μM PLP, 1 mM L-cys, inhibitor added 15 min before L-cys, 60 min, 37°C
Sequence (P32929 whole entry): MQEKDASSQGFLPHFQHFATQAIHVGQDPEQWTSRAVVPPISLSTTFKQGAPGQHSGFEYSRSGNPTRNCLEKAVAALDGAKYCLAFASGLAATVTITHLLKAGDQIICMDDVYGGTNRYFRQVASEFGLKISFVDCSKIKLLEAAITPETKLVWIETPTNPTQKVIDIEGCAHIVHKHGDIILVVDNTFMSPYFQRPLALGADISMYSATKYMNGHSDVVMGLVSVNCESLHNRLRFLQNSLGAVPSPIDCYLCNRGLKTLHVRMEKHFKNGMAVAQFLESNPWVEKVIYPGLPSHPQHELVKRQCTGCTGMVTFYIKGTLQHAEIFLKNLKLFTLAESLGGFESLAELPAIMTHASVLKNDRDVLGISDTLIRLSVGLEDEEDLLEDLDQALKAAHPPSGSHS
Measurement kind: pIC50
Hey, just a heads up that pIC50 is the negative log base 10 of the concentration in molar.

Find the recorded pIC50 belonging to NCCO/C=C/[C@H](N)C(=O)O and report it.
6.00

* * *

target: human CBS (Homo sapiens, UniProt P35520); experiment: H2S production by purified recombinant GST-CBS; format: biochemical; conditions: 1 mM compound
Sequence (P35520 whole entry): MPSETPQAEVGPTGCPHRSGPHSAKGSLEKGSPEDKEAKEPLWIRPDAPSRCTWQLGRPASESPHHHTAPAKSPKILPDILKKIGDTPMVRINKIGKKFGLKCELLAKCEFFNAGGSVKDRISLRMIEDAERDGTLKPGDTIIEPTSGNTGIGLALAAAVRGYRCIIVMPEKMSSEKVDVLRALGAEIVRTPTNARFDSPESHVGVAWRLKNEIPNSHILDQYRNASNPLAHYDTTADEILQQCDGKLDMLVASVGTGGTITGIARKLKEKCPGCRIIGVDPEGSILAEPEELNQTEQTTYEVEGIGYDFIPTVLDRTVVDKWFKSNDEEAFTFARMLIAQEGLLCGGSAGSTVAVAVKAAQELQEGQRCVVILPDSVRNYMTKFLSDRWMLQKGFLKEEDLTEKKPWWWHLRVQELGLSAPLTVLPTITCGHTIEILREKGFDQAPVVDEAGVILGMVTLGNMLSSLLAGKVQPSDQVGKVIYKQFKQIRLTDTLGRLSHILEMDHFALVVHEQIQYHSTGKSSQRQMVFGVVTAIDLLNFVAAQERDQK
Measurement kind: CBS H2S production (% of control)

May I ask what CBS H2S production (% of control) has been recorded for C#CCOc1ccc(N)cc1C(=O)NCCCC [Parsalmide] ?
93.8 ± 9.9 % of control

Tell me the measured CBS H2S production (% of control) of C#CCN(C)Cc1ccccc1 , please.
90.1 ± 14.3 % of control

Fill blank: measured CBS H2S production (% of control) of the compound NNC(=O)c1ccncc1 is ____.
88.4 ± 2.1 % of control

Give its CBS H2S production (% of control) value. Item: C[Se]C[C@H](N)C(=O)O
79.2 ± 5.1 % of control

Endpoint output: CBS H2S production (% of control) of N[C@@H]1CON=C1O . Value?
80.6 ± 21.0 % of control
